Entry source: ChEMBL document CHEMBL1134360

- Target Or System: Adenosine receptor A2a (Rattus norvegicus)
- Experiment Notes: Displacement of [3H]CGS-21680 or [3H]ZM-241,385 binding in adenosine A2A receptor of rat striatal membrane at 10 uM
Quantity: Displacement (%)
Numbers only, in %.

Recorded result, Cc1ccc(C(=O)Nc2nc(-c3ccccc3)ns2)cc1 , Displacement: 38.2

Recorded result, O=C(Nc1nc(-c2ccccn2)cs1)c1ccc([N+](=O)[O-])cc1 , Displacement: 29

For each listed entry, give its Displacement.
1. COc1ccccc1NC(=O)Nc1nc(-c2ccccc2)ns1
2. O=C(Nc1ccccc1)Nc1nc(-c2ccccc2)ns1
3. CC(C)Oc1ccc(C(=O)Nc2nc(-c3ccccn3)cs2)cc1
4. COc1ccc(C(=O)Nc2cc(-c3ccccc3)[nH]n2)cc1
5. COc1ccc(C(=O)NC2=NN(c3ccccc3)CC2)cc1
6. COc1ccc(C(=O)Nc2nc(-c3ccccc3)ns2)cc1C
7. O=C(Nc1nc(-c2ccccc2)ns1)C1CCCCC1

OUT:
1. 38
2. 48
3. 44
4. 16
5. 19
6. 8
7. 16

For each listed entry, give its Displacement.
1. O=C(Nc1nc(-c2ccccc2)ns1)c1ccc([N+](=O)[O-])cc1
2. COc1ccc(NC(=O)Nc2nc(-c3ccccn3)cs2)cc1
3. O=C(Nc1nc(-c2ccccn2)cs1)c1ccc(Cl)c(Cl)c1

OUT:
5
11
20

---

- Target Or System: Adenosine receptor A1 (Rattus norvegicus)
- Experiment Notes: Displacement of [3H]DPCPX binding in adenosine A1 receptor of rat brain cortical membrane at a concentration of 10 uM
Quantity: Displacement (%)
Answers are plain numbers, in %.

Solved cases (3 shown):
Displacement on Adenosine receptor A1 (Rattus norvegicus) for COc1ccc(NC(=O)Nc2nc(-c3ccccn3)cs2)cc1 is 4

Displacement on Adenosine receptor A1 (Rattus norvegicus) for O=C(Nc1nc(-c2ccccc2)ns1)c1ccc(I)cc1 is 49

Displacement on Adenosine receptor A1 (Rattus norvegicus) for COc1ccc(C(=O)Nc2nc(-c3ccccc3)ns2)cc1C is 48

For each listed entry, give its Displacement.
1. COc1ccc(C(=O)NC2=NN(c3ccccc3)CC2)cc1
2. COc1ccc(C(=O)Nc2cccc(-c3ccccc3)c2)cc1
3. COc1ccc(C(=O)Nc2cc(-c3ccccc3)[nH]n2)cc1

OUT:
26
30
20

For each listed entry, give its Displacement.
1. O=C(Nc1nc(-c2ccccc2)ns1)c1ccc([N+](=O)[O-])cc1
2. COc1ccc(NC(=O)Nc2nc(-c3ccccc3)ns2)cc1

OUT:
[34, 44]

For each listed entry, give its Displacement.
1. COc1ccc(C(=O)Nc2cccc(-c3ccccc3)n2)cc1
2. COc1ccccc1NC(=O)Nc1nc(-c2ccccc2)ns1

OUT:
46
27

---

Answer each item with its documented pKi.
- Target Or System: UniProt:P30543
- Experiment Notes: Displacement of [3H]-CGS- 21680 binding in adenosine A2A receptor of rat striatal membrane
pKi: −log10 of the molar value.

pKi on UniProt:P30543 for COc1ccc(C(=O)Nc2nc(-c3ccccn3)cc3ccccc23)cc1 is < 5.00

Now look at this entry.
pKi on UniProt:P30543 for COc1ccccc1NC(=O)Nc1nc(-c2cccnc2)nc2ccccc12 is < 5.00

---

Answer each item with its documented pKi.
- Target Or System: Adenosine receptor A2a (Rattus norvegicus, UniProt P30543)
- Sequence (P30543 whole entry): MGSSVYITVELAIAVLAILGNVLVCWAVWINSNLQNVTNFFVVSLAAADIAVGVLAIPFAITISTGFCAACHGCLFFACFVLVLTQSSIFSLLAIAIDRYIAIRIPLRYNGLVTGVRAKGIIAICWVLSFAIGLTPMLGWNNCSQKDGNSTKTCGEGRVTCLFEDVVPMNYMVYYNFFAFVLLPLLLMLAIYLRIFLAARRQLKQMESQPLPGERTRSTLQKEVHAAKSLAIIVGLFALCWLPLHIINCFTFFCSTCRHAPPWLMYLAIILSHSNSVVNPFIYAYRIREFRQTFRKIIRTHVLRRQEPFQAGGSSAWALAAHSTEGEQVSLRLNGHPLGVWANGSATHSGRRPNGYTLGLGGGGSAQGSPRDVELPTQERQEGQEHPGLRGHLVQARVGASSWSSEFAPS
- Experiment Notes: Displacement of [3H]-CGS-21,680 or [3H]ZM-241385 binding in adenosine A2A receptor of rat striatal membrane was determined
Numbers only, as −log10 of the molar value.

Solved cases (3 shown):
Recorded result, O=C(Nc1nc(-c2ccccc2)ns1)c1ccccc1 , pKi: 5.36

Recorded result, COC1CCC(C(=O)Nc2nc(-c3ccccc3)ns2)CC1 (stereo in doubt; 8k) , pKi: 5.72

Recorded result, O=C(Nc1nc(-c2ccccc2)ns1)c1ccc(O)cc1 , pKi: 6.24

For each listed entry, give its pKi.
1. COC1CCC(C(=O)Nc2nc(-c3ccccc3)ns2)CC1 (stereo in doubt; 8l)
2. COc1ccc(C(=O)Nc2nc(-c3ccccc3)cs2)cc1
3. O=C(O)COc1ccc(C(=O)Nc2nc(-c3ccccc3)ns2)cc1
4. O=C(Nc1nc(-c2ccccn2)cs1)c1ccccc1
5. O=C(Nc1nc(-c2ccccn2)cs1)c1cccc(Cl)c1
6. COc1ccc(C(=O)Nc2nc(-c3ccccc3)ns2)cc1
7. O=C(Nc1ccccc1)Nc1nc(-c2ccccn2)cs1

OUT:
1: 5.70; 2: 5.72; 3: 4.82; 4: 5.06; 5: 5.89; 6: 5.64; 7: 6.04

Recorded result, O=C(Nc1nc(-c2ccccn2)cs1)C1CCCC1 , pKi: 5.89

---

Record: pKi reported on UniProt P0DMS8.
One number for each entry, as −log10 of the molar value.

Solved cases (5 shown):
Recorded result, O=C(Nc1nc(-c2ccccc2)nc2ccccc12)c1ccccc1 , pKi: 6.62

Recorded result, CC(C)Oc1ccc(C(=O)Nc2nc(-c3ccccn3)cs2)cc1 , pKi: 5.43

Recorded result, O=C(Nc1ccccc1)Nc1nc(-c2ccccc2)cs1 , pKi: 5.00

Recorded result, O=C(Nc1ccccc1)Nc1nc(-c2ccccc2)ns1 , pKi: 5.40

Recorded result, Nc1nc2ccc(Cl)cc2c2nc(-c3ccco3)nn12 [CGS-15943] , pKi: 6.85

For each listed entry, give its pKi.
1. O=C(Nc1nc(-c2ccccc2)ns1)c1ccc(I)cc1
2. COC(=O)C1=C2C=CN(C)C=C2c2nc(-c3ccccc3)nn2C1
3. COc1ccc(C(=O)Nc2nc(-c3ccccc3)cs2)cc1
4. Cc1ccc(C(=O)Nc2nc(-c3ccccc3)ns2)cc1
5. COc1ccccc1NC(=O)Nc1nc(-c2cccnc2)nc2ccccc12
6. COC1CCC(C(=O)Nc2nc(-c3ccccc3)ns2)CC1 (stereo in doubt; 8l)
7. Cc1ccc(C(=O)Nc2nc(-c3ccccn3)cs2)cc1
8. O=C(Nc1nc(-c2ccccc2)ns1)C1CCCCC1

OUT:
5.96
6.77
6.17
6.85
8.40
5.28
5.49
4.80

For each listed entry, give its pKi.
1. COc1ccc(NC(=O)Nc2nc(-c3ccccc3)ns2)cc1
2. O=C(Nc1nc(-c2ccccc2)ns1)c1ccc(O)cc1
3. COc1ccc(C(=O)Nc2cc(-c3ccccc3)ncn2)cc1
4. COc1ccc(C(=O)Nc2cccc(-c3ccccc3)n2)cc1
5. O=C(Nc1nc(-c2ccccc2)ns1)c1ccc(Cl)cc1

OUT:
5.48
6.89
6.10
5.06
6.28

---

- Target Or System: Adenosine receptor A3 (Homo sapiens)
- Sequence (P0DMS8 whole entry): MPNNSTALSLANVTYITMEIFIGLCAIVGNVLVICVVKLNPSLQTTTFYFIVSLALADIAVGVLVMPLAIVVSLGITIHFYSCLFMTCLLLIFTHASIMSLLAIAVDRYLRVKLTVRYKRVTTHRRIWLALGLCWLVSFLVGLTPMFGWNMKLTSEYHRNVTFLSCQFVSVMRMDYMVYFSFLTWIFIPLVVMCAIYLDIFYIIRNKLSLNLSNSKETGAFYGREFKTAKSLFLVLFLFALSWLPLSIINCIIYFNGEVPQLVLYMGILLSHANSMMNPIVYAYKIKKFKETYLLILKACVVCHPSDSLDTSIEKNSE
- Experiment Notes: Displacement of [125I]AB-MECA from adenosine A3 receptor expressed in HEK 293 cells at 10 uM
- Details: HEK293
Answer each item with its documented Displacement.
Answers are plain numbers, in %.

Solved cases (3 shown):
Recorded result, O=C(Nc1nc(-c2ccccc2)ns1)c1ccc([N+](=O)[O-])cc1 , Displacement: 28

Recorded result, COc1ccc(C(=O)NC2=NN(c3ccccc3)CC2)cc1 , Displacement: 41

Recorded result, COc1ccc(C(=O)Nc2cc(-c3ccccc3)[nH]n2)cc1 , Displacement: 35

Now look at this entry.
Recorded result, COc1ccccc1NC(=O)Nc1nc(-c2ccccc2)ns1 , Displacement: 20
